These entries and their values trace back to paper PMC7824769.

target.or.system: PcrV (Pseudomonas aeruginosa, UniProt G3XD49)
Sequence (G3XD49 entry or part of it): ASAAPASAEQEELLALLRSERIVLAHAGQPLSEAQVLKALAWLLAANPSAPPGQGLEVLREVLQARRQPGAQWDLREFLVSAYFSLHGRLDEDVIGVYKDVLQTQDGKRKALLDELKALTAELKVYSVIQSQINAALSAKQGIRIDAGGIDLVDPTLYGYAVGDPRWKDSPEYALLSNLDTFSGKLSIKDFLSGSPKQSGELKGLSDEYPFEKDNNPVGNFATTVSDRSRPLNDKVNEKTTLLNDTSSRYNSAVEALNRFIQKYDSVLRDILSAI
assay.overview: SPR dose-response binding to immobilized PcrV (equilibrium analysis)
measurement.parameters: KD ± standard error of KD (Table S1), single experiment; standard error from ProteOn Manager software
Protocol: The SPR screening was performed using the ProteOn^TM XPR36 Protein Interaction Array System (Bio-Rad Laboratories Inc., Hercules, CA, USA) with ProteOn GLH sensor chip (Bio-Rad Laboratories Inc., Hercules, CA, USA), and the results were analyzed with the ProteOn Manager software^TM (Bio-Rad Laboratories Inc., Hercules, CA, USA), Excel 2016 (Microsoft Office), and GraphPad Prism 7.04. All SPR experiments were performed at 25 °C. […]
Cut-off 70 µM on Kd: below means label 1, at or above means label 0.

Prompt: Here's an entry: O=C(O)CCCOc1ccc(Cl)cc1Cl . Is its Kd below 70 µM?
Response: label 0

Prompt: Determine whether this molecule shows Kd lower than 70 µM (ties excluded): Cc1c(Br)ccc(OCCCC(N)=O)c1C
Response: label 1

Prompt: Identify whether the molecule Cc1cc(OCCCC(=O)O)cc(C)c1Br records Kd below 70 µM.
Response: label 0

Prompt: Dear colleague, could you confirm whether Kd of Cc1c(Br)ccc(OCCCC(=O)N2CCC(C(=O)O)CC2)c1C falls below 70 µM? Thanks.
Response: label 0

Prompt: Say whether its Kd is strictly beneath 70 µM. Entry: Cc1c(Br)ccc(OCCCC(=O)N2CCCCC2C(=O)O)c1C (stereo not drawn)
Response: label 1

Prompt: Find out if reported Kd for Cc1c(Br)ccc(OCCCC(=O)NC(C(=O)O)c2ccccc2)c1C (stereo not drawn) is less than 70 µM
Response: label 1

Prompt: Hello, I'm reviewing records and need to know if Kd of Cc1c(Br)ccc(OC[C@@H]2C[C@H]2C(=O)O)c1C (relative stereo) is below 70 µM. Could you check?
Response: label 1

Prompt: I'd appreciate it if you could check whether Cc1c(Br)ccc(OC[C@@H]2C[C@@H]2C(=O)O)c1C (relative stereo) has Kd smaller than 70 µM.
Response: label 1

###

target.or.system: PcrV (Pseudomonas aeruginosa, UniProt G3XD49)
assay.overview: SPR dose-response binding to immobilized PcrV (equilibrium analysis)
measurement.parameters: single experiment
value.kind: Rmax (Table S1)

The molecule listed as Cc1c(Br)ccc(OCCCC(=O)NC(C(=O)O)c2ccccc2)c1C (stereo not drawn) has a reported Rmax (Table S1) of 149.8

Cc1c(Br)ccc(OC[C@@H]2C[C@@H]2C(=O)O)c1C (relative stereo) has a reported Rmax (Table S1) of 76.8

Measured Rmax (Table S1) of Cc1c(Br)ccc(OCCCC(=O)N2CCCCC2C(=O)O)c1C (stereo not drawn) : 108.6

The recorded Rmax (Table S1) for entry COC(=O)CCCOc1ccc(Br)c(C)c1C equals 60

The reported value for Cc1cc(OCCCC(=O)O)cc(C)c1Br in terms of Rmax (Table S1) is 78.9

Record Cc1c(Br)ccc(OC[C@@H]2C[C@H]2C(=O)O)c1C (relative stereo) . Reported Rmax (Table S1): 81.8

###

target.or.system: PcrV (Pseudomonas aeruginosa, UniProt G3XD49)
assay.overview: SPR dose-response binding to immobilized PcrV (equilibrium analysis)
measurement.parameters: SPR KD, equilibrium analysis; mean ± SD of three or more independent experiments, individual values where n < 3; 25 °C, PBST 5% DMSO
value.kind: pKd
# pKd is unitless: minus log10 of the molar concentration; print number only

Quick note, pKd for Cc1c(Br)ccc(OCCCC(N)=O)c1C [Compound 18] landed at 4.38

So for O=C(O)CCCOc1cc(Cl)ccc1Oc1ccc(Cl)cc1Cl [Compound 17] , the logged pKd turned out to be 3.27

Looking up Cc1cc(Br)cc(C)c1OCCCC(=O)O [Compound 13] , I see its pKd listed as 3.37

// sample O=C(O)CCCOc1ccc(C2CCCCC2)cc1 [Compound 15] , its pKd was 3.82

According to the records, this molecule Cc1c(Br)ccc(OCCCC(=O)NS(C)(=O)=O)c1C [Compound 26] displays pKd of 4.03

pKd reading for COC(=O)CCCOc1ccc(Br)c(C)c1C [Compound 29] : 3.96

The molecule listed as Cc1c(Br)ccc(OCCCc2ccccc2C(=O)O)c1C [Compound 30] has a reported pKd of 3.95

Item: CNC(=O)CCCOc1ccc(Br)c(C)c1C [Compound 19] | pKd: 3.92

For this molecule ( Cc1c(Br)ccc(OCCCC(=O)NS(=O)(=O)c2ccccc2)c1C [Compound 27] ), measured pKd is 3.93

###

System: J774 cells infected with P. aeruginosa strain PAK
assay.overview: cells
Assay type: cell-based, Pseudomonas aeruginosa
measurement.parameters: Pseudomonas aeruginosa, J774, compound 25 µM; uninfected control = 100%, infected control = 0%; read-out: Viability Assay (% of Uninfected Control) 25 µM
Field: label. Allowed values: condition met (viability at 25 µM < 10%) or condition not met (viability at 25 µM >= 10%).

Prompt: Hi there! Is viability at 25 µM for Cc1c(Br)ccc(OCCCC(=O)O)c1C [Compound H1] below 10%, do you know?
Response: condition not met

Prompt: Take the compound Cc1c(Br)ccc(OCCCC(=O)NS(=O)(=O)C(F)(F)F)c1C [Compound 25] and say whether its viability at 25 µM is less than 10%.
Response: condition met

Prompt: Regarding O=C(O)CCCOc1ccc(C2CCCCC2)cc1 [Compound 15] , kindly confirm whether its viability at 25 µM is beneath 10%.
Response: condition not met

Prompt: Input Cc1c(Br)ccc(OCCCCC(=O)O)c1C [Compound 31] ; condition: viability at 25 µM strictly below 10%. Does it hold?
Response: condition not met

Prompt: is_below(viability at 25 µM, 10%) for COC(=O)CCCOc1ccc(Br)c(C)c1C [Compound 29] ?
Response: condition met

Prompt: In the record for Cc1c(Br)ccc(OCCCC(=O)N2CCCC(C(=O)O)C2)c1C (centres unmarked) [Compound 20] , is viability at 25 µM less than 10%?
Response: condition not met

Prompt: Determine if Cc1c(Br)ccc(OCCCC(=O)NS(=O)(=O)c2ccccc2)c1C [Compound 27] shows viability at 25 µM strictly lower than 10%.
Response: condition not met

Prompt: Quick check: does Cc1c(Br)ccc(OCCCC(=O)NC(C(=O)O)c2ccccc2)c1C (centres unmarked) [Compound 21] have viability at 25 µM under 10%?
Response: condition not met

###

target.or.system: PcrV (Pseudomonas aeruginosa)
assay.overview: SPR dose-response binding to immobilized PcrV (equilibrium analysis)
measurement.parameters: dose-response SPR
value.kind: Binding to PcrV in SPR (in words)

O=C(O)CCCOc1ccc2ccc(=O)oc2c1 [Compound 11]: no binding to PcrV
O=C(O)CCCOc1cccc(C(=O)O)c1 [Compound 10]: no binding to PcrV
COc1ccc(Br)cc1OCCCC(=O)O [Compound 6]: impaired binding
O=C(O)CCCOc1ccc2c(c1)OCO2 [Compound 8]: impaired binding

###

target.or.system: PcrV (Pseudomonas aeruginosa, UniProt G3XD49)
assay.overview: SPR dose-response binding to immobilized PcrV (equilibrium analysis)
measurement.parameters: KD ± standard error of KD (Table S1), single experiment; standard error from ProteOn Manager software
value.kind: pKd
pKd is a log-scale quantity: -log10 of the concentration expressed in molar.

Measured pKd of Cc1c(Br)ccc(OCCCc2ccccc2C(=O)O)c1C : 3.83

Input Cc1c(Br)ccc(OCCCC(=O)NS(=O)(=O)c2ccccc2)c1C . Output pKd: 3.94

The measured pKd associated with COC(=O)CCCOc1ccc(Br)c(C)c1C reads 3.69

The reported pKd of the molecule Cc1c(Br)ccc(OCCCC(=O)NS(C)(=O)=O)c1C was 3.87

// pKd value for CNC(=O)CCCOc1ccc(Br)c(C)c1C : 3.75

###

target.or.system: PcrV (Pseudomonas aeruginosa)
assay.overview: SPR dose-response binding to immobilized PcrV (equilibrium analysis)
measurement.parameters: KD (equilibrium analysis, Figure 3B), one representative experiment; binding levels at 45-55 s
value.kind: Kd (µM)
# output: bare number, implied unit µM

The compound listed as Cc1c(Br)ccc(OCCCC(=O)O)c1C shows Kd equal to 98.3

###

Field: viability at 6 h. Provide a value for each of the molecules that follow.
assay.overview: Cell toxicity control: compounds added to uninfected J774 cells
Format: cell-based
measurement.parameters: mouse, uninfected J774 macrophage cells; read-out: Eukaryotic cell toxicity (viability compared to DMSO control)

Summary for this molecule, Cc1c(Br)ccc(OCCCC(N)=O)c1C : viability at 6 h is < 80%

So for CNC(=O)CCCOc1ccc(Br)c(C)c1C , the logged viability at 6 h turned out to be < 80%

###

Test system: J774 cells infected with P. aeruginosa strain PAK
assay.overview: cells
Format: cell-based, Pseudomonas aeruginosa
measurement.parameters: Pseudomonas aeruginosa, J774, compound 25 µM; uninfected control = 100%, infected control = 0%; read-out: Viability Assay (% of Uninfected Control) 25 µM
value.kind: viability at 25 µM (%)
Return type: number; implicit unit %.

Kindly note the recorded viability at 25 µM for Cc1c(Br)ccc(OCCCC(=O)NS(C)(=O)=O)c1C , which is 10

Looking up Cc1c(Br)ccc(OC[C@@H]2C[C@@H]2C(=O)O)c1C (relative stereo) , I see its viability at 25 µM listed as 24

Please fill in: viability at 25 µM reported for O=C(O)CCCOc1cc(Cl)ccc1Oc1ccc(Cl)cc1Cl = 10

Query Cc1cc(OCCCC(=O)O)cc(C)c1Br yields viability at 25 µM of 13

Measured viability at 25 µM of Cc1c(Br)ccc(OCCCC(=O)N2CCCCC2C(=O)O)c1C (stereo not shown) : 18

The compound listed as Cc1c(Br)ccc(OCCCC(=O)N2CCC(C(=O)O)CC2)c1C shows viability at 25 µM equal to 17

// recorded viability at 25 µM for O=C(O)CCCOc1ccc(Cl)cc1Cl : 14

Quick note, viability at 25 µM for Cc1c(Br)ccc(OCCCc2ccccc2C(=O)O)c1C landed at 16

viability at 25 µM in this record for Cc1cc(Br)cc(C)c1OCCCC(=O)O : 19

Lab note: measured viability at 25 µM of Cc1c(Br)ccc(OC[C@@H]2C[C@H]2C(=O)O)c1C (relative stereo) was 22
